Data provenance is patent US8835458B2.

experiment: Toxicity to normal cells (SRB); assay type: cell-based, mouse; details: mouse, Balb/c3t3 fibroblasts (normal cell line), read-out: BalB/C (GI50)
Where a name gives a salt, the structure may show the parent alone.
Property Label: GI50 at 72 h

Some solved cases for reference:
# Compound, Property Label, Result
records = [
    ("CN[C@@H](C)C(=O)N[C@H](C(=O)N1CCC[C@H]1C(=O)Nc1cc2c(Nc3ccc(F)c(Cl)c3)ncnc2cc1OCCOC)C(C)(C)C [Example 5, hydrochloride]", "GI50 at 72 h", "> 10 µM"),
    ("CN[C@@H](C)C(=O)N[C@H](C(=O)N1CCC[C@H]1C(=O)Nc1cc2c(Nc3ccc(N(C)C)cc3)ncnc2cc1OC)C(C)(C)C [Example 64, dihydrochloride]", "GI50 at 72 h", "> 10 µM"),
]

Switching to the query record.
For the compound shown here, CN[C@@H](C)C(=O)N[C@H](C(=O)N1CCC[C@H]1C(=O)Nc1cc2c(Nc3c(Cl)ccc4c3OCO4)ncnc2cc1OC)C(C)(C)C [Example 51, hydrochloride] , give the reported GI50 at 72 h.
> 10 µM
